- Test system: LOX IMVI melanoma
- procedureDetails: NCI tumour cell line growth inhibition, 48 h
Reported TGI by item:

{"columns": ["molecule", "relationSign", "TGI [µM]"],
 "data": [
  ["O=[N+]([O-])c1cc(F)ccc1Sc1ccccc1", ">", 10],
  ["CC(=O)Nc1ccc(/C=C2/NC(=S)N(/C=C3\\C(=O)Oc4ccccc4C3=O)C2=O)cc1", ">", 100],
  ["COc1cc2oc(=O)cc(C)c2cc1OC", ">", 100],
  ["C/C(=C(/c1ccc(O)cc1)c1ccc(Cl)cc1)c1ccccc1", "=", 0.788],
  ["COC(=O)[C@]1(C)CCC[C@@]2(C)[C@@H]3C[C@@H]4[C@H]5C[C@@]3(CC[C@@H]21)C[C@@]45C", "=", 34.9],
  ["O=c1cc(-c2ccccn2)[nH]c2cc(F)ccc12", ">", 100],
  ["[N-]=[N+]=CC(=O)COC(=O)c1ccccc1", ">", 100],
  ["COc1ccc2c(c1)C(=O)C1CCC(=O)N1C2c1ccc2c(c1)OCO2 (configuration not stated)", "=", 35.1],
  ["COC(=O)c1cc(C)ccc1C1CN=NC12Cc1c(C)cc(C)cc1C2=O (configuration not stated)", "=", 30.3],
  ["CC(C)(C)C(=O)N1CCN(C=O)C1=S", ">", 100],
  ["C[C@]12CCC(=O)C=C1CC[C@@H]1[C@@H]2[C@@H](O)C[C@@]2(C)[C@H]1CC[C@]2(O)C(=O)COC(=O)CCC1CCCC1", ">", 100],
  ["CC(C)(CN1CCCCC1)C(/C=C/c1ccccc1)=N\\NC(=O)N/N=C(/C=C/c1ccccc1)C(C)(C)CN1CCCCC1", "=", 3.32],
  ["CC12CC=CCC1CCC1C2CCC2(C)C(c3ccc(=O)oc3)CCC12O (configuration not stated)", "=", 0.213],
  ["COc1cc(/C=C2\\CC3C4CC=C5C[C@@H](O)CC[C@]5(C)C4CC[C@]3(C)C2=O)ccc1OCCCn1ccnc1 (some centres not stated)", "=", 16.4],
  ["CCCCN(CCCC)CCc1c(C)cc(C)c(CCN(CCCC)CCCC)c1O", ">", 100],
  ["CN(C)CCCc1c2ccccc2nc2ccc(Cl)cc12", "=", 29.1],
  ["Cc1nc2cccc(F)c2c(=O)n1-c1nnc(C(F)(F)F)s1", ">", 10],
  ["NC(=S)NNC(=S)NC(=O)c1ccco1", ">", 10],
  ["COc1cc(C2c3cc4c(cc3[C@@H](OCCN(C)C)C3COC(=O)[C@H]23)OCO4)cc(OC)c1O (some centres not stated)", "=", 1.27],
  ["N=c1ccc2nc3c(cc(N)c4ccccc43)oc-2c1", "=", 0.378],
  ["CC(=O)NC(=O)NC1=NCCC(=O)N1CCc1c[nH]c2ccccc12", ">", 100],
  ["CC(/C=C/NNC1=NC(c2ccccc2)C(c2ccccc2)=NN1)Sc1ccccc1N (configuration not stated)", "=", 11.4],
  ["O=C1/C(=C/c2ccc(O)cc2)CCC1CNc1ccccc1 (configuration not stated)", "=", 22.2],
  ["COc1cc2oc(=O)cc(C)c2c(OC)c1OC(C)=O", ">", 100],
  ["Clc1ccc2c(c1)C(N1CCNCC1)=Nc1ccccc1O2", "=", 2.87],
  ["Cn1c2ccc(C3=NCCN3)cc2c2cc(C3=NCCN3)ccc21", ">", 100],
  ["COc1cc2ncnc3c2cc1OCCCCCN(C)Cc1ccc(Br)cc1N3", ">", 100],
  ["COc1nc(C)cc2c(=O)n(-c3ccccc3)n(CC(O)CN3CCN(c4ccc(Cl)cc4)CC3)c(=O)c12 (configuration not stated)", ">", 50],
  ["CCOC(=O)Nc1nc2cc(OCC)ccc2s1", ">", 100],
  ["NC(=S)N/N=C1\\CCCC1C(O)(C(F)(F)Cl)C(F)(F)Cl (configuration not stated)", ">", 10],
  ["Cc1c(Cl)cccc1NC(=O)/C(Cl)=C(\\Cl)C(=O)O", "=", 32.7],
  ["Nc1cc2[nH]cnc2c(=O)[nH]1", ">", 300],
  ["N#Cc1c(N2CCN(c3ccc([N+](=O)[O-])cc3)CC2)[n+](=O)c2ccc(-c3ccc([N+](=O)[O-])cc3)cc2n1[O-]", ">", 100],
  ["CCCCCCNC(=O)Oc1ccc(/C(=C(/C)Cc2ccc(OC)cc2)c2ccc(OCCN(C)C)cc2)cc1", "=", 8.8],
  ["COc1cc2oc(-c3ccc4c(c3)OCO4)c(OC)c(=O)c2c(O)c1OC", ">", 50],
  ["CCOC(=O)C1=C(Nc2ccc(Cl)c(Cl)c2)OC/C1=N\\NC(=O)Cc1ccccc1", ">", 100],
  ["COc1cc(/C=C2\\CN(C(=O)CCN3CCC(=NO)CC3)C/C(=C\\c3cc(OC)c(OC)c(OC)c3)C2=O)cc(OC)c1OC", "=", 0.472]
]}
